tested system: COUP transcription factor 2 (Homo sapiens) (UniProt P24468)
Sequence (P24468 whole entry, looked up): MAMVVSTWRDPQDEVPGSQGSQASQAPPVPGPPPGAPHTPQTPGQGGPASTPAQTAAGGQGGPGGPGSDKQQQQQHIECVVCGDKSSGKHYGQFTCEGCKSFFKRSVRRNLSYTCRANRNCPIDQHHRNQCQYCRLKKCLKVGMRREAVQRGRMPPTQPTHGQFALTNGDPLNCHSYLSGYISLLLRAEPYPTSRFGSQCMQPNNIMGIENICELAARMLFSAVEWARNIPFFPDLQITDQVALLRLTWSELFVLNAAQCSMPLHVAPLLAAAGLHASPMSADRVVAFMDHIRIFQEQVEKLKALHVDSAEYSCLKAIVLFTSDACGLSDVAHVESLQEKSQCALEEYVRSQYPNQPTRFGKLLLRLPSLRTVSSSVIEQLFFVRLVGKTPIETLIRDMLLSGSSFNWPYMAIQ
assay comment: COUP-TFII reporter suppression in human cells – cell-based, luciferase reporter, HEK293T, luminescence, primary screen (AID 686940);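 note: cells cotransfected with COUP-TFII expression vector driving the NGFI-A reporter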
test parameters: HEK293T NGFI-A luciferase reporter, at 8.6 µM
Among all 370,000 compounds or so, about 2,600 (0.7%) were called active.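 Rule for the calls: active = inhibition above a per-plate cutoff, mean inhibition of test wells between control levels plus 3 SD (cut at about 38% in these data); inactive = the rest.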 Only a selection was taken, and actives are over-represented in it overall.
Allowed answers: active, inactive

Input: Test call for this compound, please: Cc1cc(C(=O)COC(=O)CNC(=O)c2ccc(F)cc2)c(C)n1Cc1ccco1
Output: inactive

***
Input: Test call for this compound, please: Cc1ccc(Nc2nc(CSc3nnc(-c4ccncc4)n3-c3ccccc3C)cs2)cc1
Output: active

Input: And then CC(=O)Nc1c(-c2ccc(C)cc2)nc2ccc(Cl)cn12 , what is it?
Output: inactive

Input: And then CCOC(=O)[C@@]12CCC3=C1N(CCC3)C(=O)[C@H](CC(=O)N1CCN(C(=O)c3ccco3)CC1)C2 , what is it?
Output: inactive

Input: And then Cc1sc2nc(SCC(=O)c3ccc(O)c(O)c3)n(Cc3ccco3)c(=O)c2c1C , what is it?
Output: inactive

Input: And then CC(=O)N1CCCN(C2=Nc3ccccc3Sc3ccccc32)CC1 , what is it?
Output: inactive

Input: And then Cc1ccc(S(=O)(=O)NCCC(=O)NC2CCN(Cc3ccccc3)CC2)cc1 , what is it?
Output: inactive

Input: And then O=C(CNC(=O)c1ccccc1)OC(C(=O)Nc1cc([N+](=O)[O-])ccc1F)c1ccccc1 (stereo not given) , what is it?
Output: inactive

Every entry's value here was drawn from PubChem BioAssay AID686940.
